experiment: Cytotoxicity assay (MTT); assay type: cell-based; details: rhesus monkey, LLC-MK2 cells, read-out: LLC-MK2 CC50 (μM ± SD)
reported property: CC50 at 72 h

# get_value(readout='CC50 at 72 h', item= O=C(Cn1ccnc1[N+](=O)[O-])NCc1ccccc1 [BZN, benznidazole, reference compound] )
> 100 µM

Likewise for Cc1ccc(Sc2ccc(-c3cc(Cn4ccnc4[N+](=O)[O-])on3)cc2)cc1 ?
> 100 µM

Could you report CC50 at 72 h for every entry in the following list?
1. O=[N+]([O-])c1nccn1Cc1cc(-c2ccc(Oc3ccccc3)cc2)no1
2. O=[N+]([O-])c1nccn1Cc1cc(-c2ccc(Oc3ccc(Cl)c(Cl)c3)c(F)c2)no1
3. O=[N+]([O-])c1nccn1Cc1cc(-c2ccc(Sc3ccc(Cl)cc3)cc2)no1

1: > 100 µM; 2: > 100 µM; 3: > 100 µM

This collection of values is drawn from paper PMC12658631.
